As shown below, each of these binders has a reported koff value.
Biological target: T1, human Trop-2-His protein (human, UniProt P09758 27-274)
T1 construct: extracellular domain; Assay paragraphs say only 'Trop-2-His'; also called hTrop-2; Kactus Cat #TRP-HM121; not shown: His tag
T1 sequence (looked up): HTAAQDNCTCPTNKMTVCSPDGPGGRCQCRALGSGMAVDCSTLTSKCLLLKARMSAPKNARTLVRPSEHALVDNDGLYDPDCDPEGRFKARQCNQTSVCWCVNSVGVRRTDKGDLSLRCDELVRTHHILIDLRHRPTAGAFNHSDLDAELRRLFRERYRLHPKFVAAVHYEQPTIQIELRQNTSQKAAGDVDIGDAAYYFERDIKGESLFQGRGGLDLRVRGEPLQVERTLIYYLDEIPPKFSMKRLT
Test: BLI (Gator Plus), purified Ab on HFC probe
Output spec: scalar in s⁻¹, unitless text.

74F11/15F5 (antibody, human IgG1, V domains shown, LEM construct: VH + rabbit IgG CH1 + human IgG1 CH2-CH3) VH: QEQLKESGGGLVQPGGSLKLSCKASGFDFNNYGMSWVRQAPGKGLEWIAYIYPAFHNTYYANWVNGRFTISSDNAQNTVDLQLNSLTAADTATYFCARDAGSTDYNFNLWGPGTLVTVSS VL: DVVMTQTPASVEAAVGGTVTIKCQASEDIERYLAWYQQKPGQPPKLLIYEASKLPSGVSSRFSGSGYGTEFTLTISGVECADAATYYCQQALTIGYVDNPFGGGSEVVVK	9e-06

Continue with the next binder.
For record 1D10 (antibody, V domains shown, Rabbit-derived clone; LEM construct: VH + rabbit IgG CH1 + human IgG1 CH2-CH3) VH: QEQLKESGGGLVQPGGSLTLSCKASGFDFNYYGVSWVRQAPGKGLEWIGYIYPAYHNTYYATWVNGRFTISSHNAQNTLYLQLNTLTAADTATYFCARDAGSTDYNLNLWGPGTLVTVSS VL: DVVMTQTPASVEVAVGGTVTIKCQASEDIESYLAWYQQKPGQPPRLLIYEASKLASGVSSRFSGGGYGTDFTLTISGVECADAATYYCHQALTIGNVDNPFGGGGEVVVK the listed koff is 0.000131
